# tested.target: T1, Puf4 RNA-binding domain (Saccharomyces cerevisiae, UniProt P25339 537-888)
# T1 sequence: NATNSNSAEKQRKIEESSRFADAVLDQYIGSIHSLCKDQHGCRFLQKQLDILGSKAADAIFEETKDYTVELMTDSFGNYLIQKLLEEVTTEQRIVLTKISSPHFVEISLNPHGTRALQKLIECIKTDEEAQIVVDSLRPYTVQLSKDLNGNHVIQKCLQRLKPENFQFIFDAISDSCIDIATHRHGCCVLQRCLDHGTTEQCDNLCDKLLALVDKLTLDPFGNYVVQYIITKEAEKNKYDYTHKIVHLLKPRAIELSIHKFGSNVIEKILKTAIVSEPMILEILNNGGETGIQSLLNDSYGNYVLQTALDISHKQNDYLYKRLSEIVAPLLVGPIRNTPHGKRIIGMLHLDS
# experimental.protocol: EMSA; 0 C; hyperbolic fit, upper limit (<=); 20 mM HEPES-Na or HEPES-K pH 7.4, 2 mM MgCl2, 100 mM KOAc, 2 mM DTT, 0.2% Tween 20, 5% glycerol, 0.1 mg/ml BSA; 25 or 0 C; native 20% gel at 4-6 C
# study.conditions: protein: recombinant; tags: C-terminal SNAP tag; N-terminal 6xHis removed by TEV; label: 5'-32P; single strand
pKd: −log10 of the molar value.
assay.endpoint: pKd

**Query** Look up and report measured pKd for this entry: AUGUGUAUAUUAGU (ssRNA) [Puf4_HO RNA]
**Result** > 11.77
